# experimental target: Zinc finger protein mex-5 (Caenorhabditis elegans)
# Sequence (Q9XUB2 whole entry): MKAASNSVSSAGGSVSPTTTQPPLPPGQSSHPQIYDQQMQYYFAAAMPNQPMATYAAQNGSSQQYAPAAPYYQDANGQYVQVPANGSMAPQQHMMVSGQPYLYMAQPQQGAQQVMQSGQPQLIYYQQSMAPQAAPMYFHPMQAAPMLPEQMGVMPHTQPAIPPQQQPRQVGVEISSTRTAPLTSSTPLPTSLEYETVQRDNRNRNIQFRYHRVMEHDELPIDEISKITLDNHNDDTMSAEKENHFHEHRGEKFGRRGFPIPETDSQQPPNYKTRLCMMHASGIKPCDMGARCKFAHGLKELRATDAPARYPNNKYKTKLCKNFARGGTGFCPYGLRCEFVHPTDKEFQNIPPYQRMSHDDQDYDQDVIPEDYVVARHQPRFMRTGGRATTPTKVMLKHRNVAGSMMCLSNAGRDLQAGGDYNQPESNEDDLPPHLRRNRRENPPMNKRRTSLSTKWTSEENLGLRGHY
# assay: MEX-5/TCR-2 RNA interaction inhibitors, dose response, biochemical, C. elegans, fluorescence polarization (AID 1960)
Activity calls are given as the source filed them. Rule as the data show it: actives have a measured EC50 and inactives only a lower limit.
reported property: EC50

compound=CCn1c(=N)c(S(=O)(=O)c2ccc(F)cc2)cc2c(=O)n3ccccc3nc21 observed_result="26.2 µM (inconclusive)"
compound=Oc1ccc(-c2cn3ccccc3n2)cc1O observed_result="13.6 µM (active)"
compound=COc1ccc(N/C=C2/C(=O)N(c3cccc(C)n3)C(=O)c3ccccc32)c(OC)c1 observed_result="55.4 µM (inconclusive)"
compound=CCOc1cc(/C=C/c2cccc[n+]2C)ccc1OCC(=O)Nc1ccc(C)cc1 observed_result="> 300 µM (not active)"
compound=COc1ccc(NC(=O)c2ccc(NCCCN3CCOCC3)c([N+](=O)[O-])c2)cc1 observed_result="> 300 µM (not active)"
compound="CCC(=O)OC1(C)C(=O)C2=COC(c3ccc(OC)cc3)=CC2=C(Br)C1=O (stereo not given)" observed_result="32.9 µM (active)"
compound=CCOC(CNC(=O)CCc1c(C)nc2nc(C)nn2c1C)OCC observed_result="> 300 µM (not active)"
compound=O=C1NC(=O)N(Cc2ccco2)C(=O)/C1=C/NNC(=O)c1ccccc1O observed_result="16.9 µM (active)"
compound="CC1=CC(=C(C#N)c2nc3ccccc3s2)C=C(C)N1CC1CCCO1 (stereo not given)" observed_result="13.5 µM (inconclusive)"
compound=O=C1C=CC(=O)C(C2=C3C(=O)N(CCc4ccccc4)CC(=O)N3CCC2)=C1 observed_result="14.9 µM (inconclusive)"

The measured values listed here are drawn from ChEMBL document CHEMBL1201862.
